IC50 overview
target: Human TDO (hTDO)-transfected CHO-K1 cells (Homo sapiens (Human)); experiment: CHO-K1 cell based TDO assay; details: hTDO cellular assay
Sequence (P48775 whole entry): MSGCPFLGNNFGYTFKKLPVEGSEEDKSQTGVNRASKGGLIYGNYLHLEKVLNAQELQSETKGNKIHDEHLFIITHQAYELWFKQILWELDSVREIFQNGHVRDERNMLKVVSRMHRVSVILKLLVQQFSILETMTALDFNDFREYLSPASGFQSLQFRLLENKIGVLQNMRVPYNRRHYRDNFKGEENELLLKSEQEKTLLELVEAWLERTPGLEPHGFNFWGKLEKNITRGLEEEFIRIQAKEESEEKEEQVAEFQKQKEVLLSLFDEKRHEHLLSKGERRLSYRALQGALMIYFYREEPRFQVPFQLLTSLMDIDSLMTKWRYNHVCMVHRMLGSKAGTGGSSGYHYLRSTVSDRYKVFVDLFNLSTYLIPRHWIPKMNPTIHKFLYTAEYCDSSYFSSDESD
Where a name gives a salt, the structure may show the parent alone.

Cc1cc(-c2nc(F)cc3c(Nc4cccc(Cl)c4)c(N)oc23)ccn1 [Compound 254] :: 0.5 to 2 µM
CCc1ccccc1Nc1c(N)sc2ccccc12 [Compound 232, hydrochloride] :: > 2 µM
Nc1oc2cnccc2c1Nc1cccc(-c2ccccc2)c1 [Compound 53] :: > 2 µM

Exercise: Consider the compound CCOC(=O)Nc1oc2c(I)nccc2c1N(C(=O)OCC)c1ccc(F)c(Cl)c1 [Compound 156] and give its measured IC50.
Key: > 2 µM

Exercise: Consider the compound Nc1oc2cnccc2c1Nc1ccccc1N1CCCCC1 [Compound 24] and give its measured IC50.
Key: > 2 µM
